Provide the reported TGI of each item.
- Tested on: RPMI-8226 leukemia
- experiment.notes: NCI tumour cell line growth inhibition, 48 h
Kindly answer with a numeric value in µM, unit omitted.

Query: Quickly give me recorded TGI for COc1cc2c3c(c1OC)Oc1ccc(cc1)CC1c4c(cc(OC)c(OC)c4Oc4ccc(cc4)CC3N(C)CC2)CCN1C (centres undefined)
Reply: 70.4

Query: Quickly give me recorded TGI for "C=C1C(=O)O[C@H]2[C@H]1CC/C(COC(=O)/C=C/c1c[nH]c3ccccc13)=C\CC[C@@]1(C)O[C@@H]21"
Reply: 0.123

Query: Quickly give me recorded TGI for "NC1CCCCC1N.O=S(=O)([O-])CCCN1CCN(CCO)CC1.O=S(=O)([O-])CCCN1CCN(CCO)CC1.[Pt+4]"
Reply: 20.5

Query: Quickly give me recorded TGI for O=C1C2=C(c3ccccc31)C(c1ccc(Cl)cc1)NC(=S)N2 (centres undefined)
Reply: 52.8

Query: Quickly give me recorded TGI for C=C1C(=O)O[C@H]2C/C(C=O)=C\[C@H]3O[C@H]3/C(COC(=O)C(C)C)=C/CC12 (some centres undefined)
Reply: 7.61

Query: Quickly give me recorded TGI for "O=C(C=P(c1ccccc1)(c1ccccc1)c1ccccc1)c1ccc(-c2ccc(F)cc2F)cc1"
Reply: 4.43

Query: Quickly give me recorded TGI for CC1(C)CC2(C)OC(=N)C1(C#N)C2(C#N)C#N (centres undefined)
Reply: 23.7

Query: Quickly give me recorded TGI for "O=S(=O)(/N=C1/SC(=Nc2ccccc2)N(c2ccccc2)/C1=N/S(=O)(=O)c1ccccc1)c1ccccc1"
Reply: 44.6

Query: Quickly give me recorded TGI for "CS(=O)(=O)Nc1cc(-c2ccc3ncnc(Nc4cccc(Cl)c4F)c3c2)cnc1Cl"
Reply: 6.11

Query: Quickly give me recorded TGI for "c1ccc(-c2cnc3nc4ccccc4nc3n2)cc1"
Reply: 23.9

Query: Quickly give me recorded TGI for "O=C(Nc1cccc([N+](=O)[O-])c1)c1cc2ccccc2cc1O"
Reply: 1.06
